Target: Integrin alpha-4/beta-1 (Homo sapiens, UniProt P05556+P13612)
Sequence (P05556 whole entry): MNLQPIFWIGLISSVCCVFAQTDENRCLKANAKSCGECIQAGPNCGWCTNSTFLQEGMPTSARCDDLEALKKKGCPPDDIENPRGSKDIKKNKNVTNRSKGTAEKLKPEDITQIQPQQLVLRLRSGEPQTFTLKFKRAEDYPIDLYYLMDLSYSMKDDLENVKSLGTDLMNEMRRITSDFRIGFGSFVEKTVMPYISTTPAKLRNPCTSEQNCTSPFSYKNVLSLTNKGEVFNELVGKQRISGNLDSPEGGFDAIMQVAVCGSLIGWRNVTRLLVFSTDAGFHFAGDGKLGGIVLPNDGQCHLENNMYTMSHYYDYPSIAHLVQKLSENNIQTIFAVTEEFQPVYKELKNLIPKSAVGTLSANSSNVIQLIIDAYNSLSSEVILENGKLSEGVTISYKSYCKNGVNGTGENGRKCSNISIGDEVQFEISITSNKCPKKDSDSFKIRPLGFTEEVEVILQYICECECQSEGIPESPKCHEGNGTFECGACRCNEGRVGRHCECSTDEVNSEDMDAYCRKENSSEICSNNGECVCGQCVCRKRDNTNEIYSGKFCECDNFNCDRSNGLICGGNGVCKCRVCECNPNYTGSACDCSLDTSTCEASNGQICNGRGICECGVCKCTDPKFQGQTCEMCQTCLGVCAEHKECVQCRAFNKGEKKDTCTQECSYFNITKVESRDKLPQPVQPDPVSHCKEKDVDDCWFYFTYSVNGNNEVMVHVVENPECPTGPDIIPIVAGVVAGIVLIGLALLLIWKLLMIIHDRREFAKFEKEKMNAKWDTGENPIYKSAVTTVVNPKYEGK
Sequence (P13612 whole entry): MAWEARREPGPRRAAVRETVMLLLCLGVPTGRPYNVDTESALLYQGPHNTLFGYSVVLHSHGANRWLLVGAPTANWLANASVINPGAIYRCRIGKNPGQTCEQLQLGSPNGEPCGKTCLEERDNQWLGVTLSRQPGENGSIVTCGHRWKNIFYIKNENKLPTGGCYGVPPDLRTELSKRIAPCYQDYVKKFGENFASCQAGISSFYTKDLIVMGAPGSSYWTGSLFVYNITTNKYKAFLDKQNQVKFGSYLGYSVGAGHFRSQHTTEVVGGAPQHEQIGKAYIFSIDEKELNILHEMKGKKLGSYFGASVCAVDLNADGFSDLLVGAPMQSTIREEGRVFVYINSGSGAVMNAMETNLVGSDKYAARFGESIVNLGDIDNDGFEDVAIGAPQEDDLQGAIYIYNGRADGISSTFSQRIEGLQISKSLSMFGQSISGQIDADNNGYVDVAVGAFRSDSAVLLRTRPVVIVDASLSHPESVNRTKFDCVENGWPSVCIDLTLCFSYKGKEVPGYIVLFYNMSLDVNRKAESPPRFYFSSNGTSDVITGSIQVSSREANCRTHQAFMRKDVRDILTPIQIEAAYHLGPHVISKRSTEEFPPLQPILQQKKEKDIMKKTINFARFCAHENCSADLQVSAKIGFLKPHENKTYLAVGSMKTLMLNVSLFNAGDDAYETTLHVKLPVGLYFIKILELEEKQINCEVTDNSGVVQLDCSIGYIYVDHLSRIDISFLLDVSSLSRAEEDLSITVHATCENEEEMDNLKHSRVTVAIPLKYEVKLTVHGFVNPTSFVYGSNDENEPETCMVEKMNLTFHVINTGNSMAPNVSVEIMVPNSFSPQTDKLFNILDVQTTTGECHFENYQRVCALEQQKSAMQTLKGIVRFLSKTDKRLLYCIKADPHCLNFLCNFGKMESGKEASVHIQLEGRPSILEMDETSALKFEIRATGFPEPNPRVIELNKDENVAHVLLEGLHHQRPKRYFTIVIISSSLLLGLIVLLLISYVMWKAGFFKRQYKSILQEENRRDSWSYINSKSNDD
Assay: Inhibition of integrin alpha4-beta1 binding to VCAM-Ig
Assay type: protein-complex assay
*1 amine or outer side, *2 acyl side, *3 side chain or, on linkers, in order; H or OH if unused. Where a SMILES comes first, the peptide text is derived from it. [ ]: non-standard residue; d: D form. The star is where a group is joined. X1 = O=C(Cc1ccc(N[*:1])cc1)[*:2]; NH(2-Me-phenyl) = Cc1ccccc1N*; CO = O=C([*:1])[*:2]
Property measured: IC50 (nM)

a = Cc1ccccc1NC(=O)Nc1ccc(CC(=O)N[C@@H](CC(C)C)C(=O)N[C@@H](CC(=O)O)C(=O)N[C@H](C(=O)N2CCC[C@H]2C(N)=O)C(C)C)cc1 ({NH(2-Me-phenyl)-CO}-[X1]LDVP-NH2)
b = CC[C@H](C)[C@H](N)C(=O)N[C@@H](CC(C)C)C(=O)N[C@@H](CC(=O)O)C(=O)N[C@H](C(=O)O)C(C)C (H-ILDV-OH)
c = CC(C)C[C@H](NC(=O)Cc1ccc(NC(=O)Nc2ccccc2)cc1)C(=O)N[C@@H](CC(=O)O)C(=O)N[C@H](C(=O)O)C(C)C
Q: Put the above entries in order of falling IC50. Labels, requested order.
Result: b, c, a
